Target: T1, human IL-2Rβ (human, UniProt P14784 27-240, limits assumed)
T1 construct: also called hIL-2Rβ; IL-2 receptor beta
T1 sequence (looked up): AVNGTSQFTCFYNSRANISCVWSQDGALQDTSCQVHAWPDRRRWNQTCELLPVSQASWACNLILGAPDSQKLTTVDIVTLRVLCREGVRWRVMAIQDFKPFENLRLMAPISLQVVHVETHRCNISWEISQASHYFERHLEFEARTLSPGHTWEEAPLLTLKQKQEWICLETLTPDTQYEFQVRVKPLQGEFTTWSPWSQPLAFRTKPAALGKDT
Test: SPR, steady state
RESULT_TYPE: pKd
Please report pKd as the negative decimal logarithm of the molar concentration, giving only the number.

Prompt: Which pKd value belongs to hIL-15 V49R/S7Q (ligand) NWVNVIQDLKKIEDLIQSMHIDATLYTESDVHPSCKVTAMKCFLLELQRISLESGDASIHDTVENLIILANNSLSSNGNVTESGCKECEELEEKNIKEFLQSFVHIVQMFINTGGGGSGHHHHHHHHGGGLNDIFEAQKIEWHE ?
Response: 6.67

Prompt: Suppose we examine the binder hIL-15 V49R/N65K (ligand) NWVNVISDLKKIEDLIQSMHIDATLYTESDVHPSCKVTAMKCFLLELQRISLESGDASIHDTVEKLIILANNSLSSNGNVTESGCKECEELEEKNIKEFLQSFVHIVQMFINTGGGGSGHHHHHHHHGGGLNDIFEAQKIEWHE ; what pKd value has been reported?
Response: 6.71

Prompt: Which pKd is reported for this binder? hIL-15 V49R/D30M (ligand) NWVNVISDLKKIEDLIQSMHIDATLYTESMVHPSCKVTAMKCFLLELQRISLESGDASIHDTVENLIILANNSLSSNGNVTESGCKECEELEEKNIKEFLQSFVHIVQMFINTGGGGSGHHHHHHHHGGGLNDIFEAQKIEWHE
Response: 6.62

Prompt: Which pKd reading was recorded for the binder hIL-15 V49R/K11T (ligand) NWVNVISDLKTIEDLIQSMHIDATLYTESDVHPSCKVTAMKCFLLELQRISLESGDASIHDTVENLIILANNSLSSNGNVTESGCKECEELEEKNIKEFLQSFVHIVQMFINTGGGGSGHHHHHHHHGGGLNDIFEAQKIEWHE ?
Response: 6.65

Prompt: Any idea what pKd was measured for hIL-15 V49R/H32R (ligand) NWVNVISDLKKIEDLIQSMHIDATLYTESDVRPSCKVTAMKCFLLELQRISLESGDASIHDTVENLIILANNSLSSNGNVTESGCKECEELEEKNIKEFLQSFVHIVQMFINTGGGGSGHHHHHHHHGGGLNDIFEAQKIEWHE ?
Response: 6.81
